Experiment: In vivo pharmacokinetics in mice
Settings: male, CD1, plasma; mouse, SC 10 mg kg-1
parameterMeasured: half-life (min)

1. CN[C@H](CC(C)C)C(=O)N[C@H]1C(=O)N[C@@H](CC(N)=O)C(=O)N[C@H]2C(=O)N[C@H]3C(=O)N[C@H](C(=O)N[C@H](C(=O)O)c4cc(O)cc(O)c4-c4cc3ccc4O)[C@H](O)c3ccc(c(Cl)c3)Oc3cc2cc(c3O[C@@H]2O[C@H](CO)[C@@H](O)[C@H](O)[C@H]2O[C@H]2C[C@](C)(N)[C@H](O)[C@H](C)O2)Oc2ccc(cc2Cl)[C@H]1O; 48

----------
Test: in vitro
Details: human, 50% human plasma (pooled, sodium heparin) in PBS, pH 7.4
parameterMeasured: remaining at 1 h, 20 µM (%)

1) CCCCCCCCCCCCCC(=O)NCC(=O)N[C@@H](CO)C(=O)N[C@@H](CCCCN)C(=O)N[C@@H](CCCCN)C(=O)N[C@@H](CCCCN)C(=O)N[C@@H](CSSCCNC(=O)[C@H]1NC(=O)[C@H]2NC(=O)[C@H](NC(=O)[C@@H]3NC(=O)[C@H](CC(N)=O)NC(=O)[C@H](NC(=O)[C@@H](CC(C)C)NC)[C@H](O)c4ccc(c(Cl)c4)Oc4cc3cc(c4O[C@@H]3O[C@H](CO)[C@@H](O)[C@H](O)[C@H]3O[C@H]3C[C@](C)(N)[C@H](O)[C@H](C)O3)Oc3ccc(cc3Cl)[C@H]2O)c2ccc(O)c(c2)-c2c(O)cc(O)cc21)C(=O)O [Compound 14]; 119
2) CN[C@H](CC(C)C)C(=O)N[C@H]1C(=O)N[C@@H](CC(N)=O)C(=O)N[C@H]2C(=O)N[C@H]3C(=O)N[C@H](C(=O)N[C@H](C(=O)O)c4cc(O)cc(O)c4-c4cc3ccc4O)[C@H](O)c3ccc(c(Cl)c3)Oc3cc2cc(c3O[C@@H]2O[C@H](CO)[C@@H](O)[C@H](O)[C@H]2O[C@H]2C[C@](C)(N)[C@H](O)[C@H](C)O2)Oc2ccc(cc2Cl)[C@H]1O [Compound 1, Vancomycin]; 100
3) CCCCCCCCCCC(=O)N[C@@H](CCCCN)C(=O)N[C@@H](CCCCN)C(=O)N[C@@H](CCCCN)C(=O)N[C@@H](CCCCNC(=O)[C@H]1NC(=O)[C@H]2NC(=O)[C@H](NC(=O)[C@@H]3NC(=O)[C@H](CC(N)=O)NC(=O)[C@H](NC(=O)[C@@H](CC(C)C)NC)[C@H](O)c4ccc(c(Cl)c4)Oc4cc3cc(c4O[C@@H]3O[C@H](CO)[C@@H](O)[C@H](O)[C@H]3O[C@H]3C[C@](C)(N)[C@H](O)[C@H](C)O3)Oc3ccc(cc3Cl)[C@H]2O)c2ccc(O)c(c2)-c2c(O)cc(O)cc21)C(=O)O [Compound 18, nC10CO-KKK-K(Vancomycin)-OH]; 87
